experimental-system: KAT6A Full length enzyme (Homo sapiens (Human), UniProt Q92794)
Sequence (Q92794 other isoform, or with tags, fused parts or gaps): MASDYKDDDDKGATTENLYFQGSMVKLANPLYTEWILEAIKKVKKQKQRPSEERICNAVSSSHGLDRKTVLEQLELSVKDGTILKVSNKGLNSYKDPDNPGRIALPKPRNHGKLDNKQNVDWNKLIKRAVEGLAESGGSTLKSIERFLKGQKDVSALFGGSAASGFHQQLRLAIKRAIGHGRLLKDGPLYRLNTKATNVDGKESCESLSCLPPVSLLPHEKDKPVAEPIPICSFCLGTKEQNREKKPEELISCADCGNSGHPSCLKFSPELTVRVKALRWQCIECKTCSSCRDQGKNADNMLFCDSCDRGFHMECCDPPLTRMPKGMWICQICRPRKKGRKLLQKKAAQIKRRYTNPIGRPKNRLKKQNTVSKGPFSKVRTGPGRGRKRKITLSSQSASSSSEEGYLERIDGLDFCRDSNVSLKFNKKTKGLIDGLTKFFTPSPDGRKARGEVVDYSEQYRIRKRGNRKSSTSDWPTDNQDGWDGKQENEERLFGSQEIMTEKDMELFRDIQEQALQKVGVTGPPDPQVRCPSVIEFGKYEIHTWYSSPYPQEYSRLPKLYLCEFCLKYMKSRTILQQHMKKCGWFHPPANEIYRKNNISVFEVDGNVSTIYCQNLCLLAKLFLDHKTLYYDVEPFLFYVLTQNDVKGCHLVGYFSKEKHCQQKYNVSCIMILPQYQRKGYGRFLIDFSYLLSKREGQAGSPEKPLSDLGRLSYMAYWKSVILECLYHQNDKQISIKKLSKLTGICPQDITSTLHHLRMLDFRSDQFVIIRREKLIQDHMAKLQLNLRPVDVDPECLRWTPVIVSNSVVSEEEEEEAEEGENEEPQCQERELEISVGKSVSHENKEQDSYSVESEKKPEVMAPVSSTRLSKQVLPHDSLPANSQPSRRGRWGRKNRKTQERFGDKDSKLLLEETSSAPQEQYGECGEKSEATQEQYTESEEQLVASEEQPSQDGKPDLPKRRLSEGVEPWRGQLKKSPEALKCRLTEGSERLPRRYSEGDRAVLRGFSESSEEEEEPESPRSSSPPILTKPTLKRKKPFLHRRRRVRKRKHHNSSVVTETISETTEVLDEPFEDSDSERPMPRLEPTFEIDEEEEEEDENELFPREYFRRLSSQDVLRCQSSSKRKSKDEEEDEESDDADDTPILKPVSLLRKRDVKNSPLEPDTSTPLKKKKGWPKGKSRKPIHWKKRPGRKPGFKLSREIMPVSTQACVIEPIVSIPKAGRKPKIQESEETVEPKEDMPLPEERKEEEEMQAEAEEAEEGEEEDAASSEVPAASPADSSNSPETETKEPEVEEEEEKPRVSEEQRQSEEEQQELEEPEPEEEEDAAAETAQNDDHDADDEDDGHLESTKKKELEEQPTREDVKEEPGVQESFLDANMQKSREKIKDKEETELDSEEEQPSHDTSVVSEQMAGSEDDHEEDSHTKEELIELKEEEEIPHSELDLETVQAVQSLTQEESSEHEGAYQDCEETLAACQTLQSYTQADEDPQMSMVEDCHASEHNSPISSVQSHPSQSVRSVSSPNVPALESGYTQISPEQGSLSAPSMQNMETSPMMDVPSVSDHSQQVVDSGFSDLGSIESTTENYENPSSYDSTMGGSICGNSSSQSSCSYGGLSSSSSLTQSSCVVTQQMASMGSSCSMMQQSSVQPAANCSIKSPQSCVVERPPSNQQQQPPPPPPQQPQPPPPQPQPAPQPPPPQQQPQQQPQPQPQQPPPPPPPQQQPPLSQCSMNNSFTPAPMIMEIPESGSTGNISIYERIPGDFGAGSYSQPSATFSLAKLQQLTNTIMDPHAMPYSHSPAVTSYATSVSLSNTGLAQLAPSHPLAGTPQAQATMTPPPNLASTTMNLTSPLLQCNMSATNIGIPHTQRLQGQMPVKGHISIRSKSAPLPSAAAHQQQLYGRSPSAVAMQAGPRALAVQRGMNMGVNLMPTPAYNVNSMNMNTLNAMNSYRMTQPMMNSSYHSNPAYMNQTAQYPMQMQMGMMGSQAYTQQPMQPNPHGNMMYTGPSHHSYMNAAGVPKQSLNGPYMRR
assay-summary: KAT6A assay (SAMDI-MS acetylation of H3 1-21 peptide)
Type: biochemical
condition: Morrison equation fit; replicate number in parentheses; read-out: KAT6A Ki (nM) (replicate number)
# if measured Ki < 2 nM: 1.0  # else: 0.0

COc1cc2c(NS(=O)(=O)c3c(OC)cccc3OC)noc2cc1Nc1ncccn1: 1.0
COc1cc2c(NS(=O)(=O)c3c(OC)cc(C(C)N4CCOCC4)cc3OC)noc2cc1Nc1cc(C2CC2)n[nH]1 (single isomer, unassigned) [Example 208]: 0.0
COc1cc2c(NS(=O)(=O)c3c(OC)cc(C4CN(C)CCC4(F)F)cc3OC)noc2cc1Nc1cc(C2CC2)[nH]n1 (stereo not drawn): 1.0
COc1cc2c(NS(=O)(=O)c3c(OC)cc(C4CCN([C@H]5CCOC5)C4)cc3OC)noc2cc1Nc1cc(C2CC2)n[nH]1 (single isomer, unassigned) [Example 162]: 1.0
COc1cc2c(NS(=O)(=O)c3c(OC)cc(-c4ccc(C)cn4)cc3OC)noc2cc1Nc1cc(C2CC2)n[nH]1: 1.0
CCc1nc(Nc2cc3onc(NS(=O)(=O)c4c(OC)cccc4OC)c3cc2OC)no1: 0.0
COc1cc2c(NS(=O)(=O)c3c(OC)cc(CN4CCC[C@@H](F)C4)cc3OC)noc2cc1Nc1cc(C2CC2)n[nH]1 (single isomer, unassigned): 1.0
COc1cc2c(NS(=O)(=O)c3c(OC)cc(-c4nccc(C)n4)cc3OC)noc2cc1Nc1cc(C2CC2)n[nH]1: 1.0
COc1cc2c(NS(=O)(=O)c3c(OC)cccc3OC)noc2cc1Nc1ccccn1: 1.0
COc1cc2c(NS(=O)(=O)c3c(OC)cccc3OC)noc2cc1Nc1cc(C)n[nH]1: 1.0

## Input Bench note: check whether `COc1cc2c(NS(=O)(=O)c3ccc(C)cc3OCC(F)F)noc2cc1Nc1cc[nH]n1` shows Ki below 2 nM
## Output 1.0

## Input Is it true that Ki reported for `CCOc1ccccc1S(=O)(=O)Nc1noc2cc(Nc3cc(C(C)C)[nH]n3)c(OC)cc12` is less than 2 nM?
## Output 0.0

## Input Ki strictly < 2 nM for this compound? COc1cc2c(NS(=O)(=O)c3c(OC)cc(C4COCCN4C)cc3OC)noc2cc1Nc1cc(C2CC2)[nH]n1 (single isomer, unassigned) [Example 179]
## Output 1.0

====

experimental-system: KAT6A Full length enzyme (Homo sapiens (Human), UniProt Q92794)
assay-summary: KAT6A assay (SAMDI-MS acetylation of H3 1-21 peptide)
Assay type: biochemical
condition: Morrison equation fit; replicate number in parentheses; read-out: KAT6A Ki (nM) (replicate number)
measure-name: Ki (nM)
Output spec: scalar in nM, unitless text.

The cases that follow already have their Ki on record.
CCn1cnc(Nc2cc3onc(NS(=O)(=O)c4c(OC)cccc4OC)c3cc2OC)n1: 6
COc1cc2c(NS(=O)(=O)c3c(OC)cccc3OC)noc2cc1Nc1cc(C(C)C)n[nH]1: 4.5

## Input Give Ki for the following compound: CCN1CCOC(c2cc(OC)c(S(=O)(=O)Nc3noc4cc(Nc5cc(C6CC6)n[nH]5)c(OC)cc34)c(OC)c2)C1 (single isomer, unassigned) [Example 156]
## Output 0.8

## Input Read the entry `CCOc1cccc(OC)c1S(=O)(=O)Nc1noc2cc(Nc3cc(C(C)C)[nH]n3)c(OC)cc12` and write its reported Ki.
## Output 2.9

## Input Identify Ki associated with the compound `COc1cc2c(NS(=O)(=O)c3c(OC)cc(-c4ncc5c(n4)CN(C)CC5)cc3OC)noc2cc1Nc1cc(C2CC2)n[nH]1`
## Output 0.6

## Input Name the recorded Ki of the compound listed here: `COc1cccc(OC2CC2)c1S(=O)(=O)Nc1noc2cc(Nc3cc(C4CC4)n[nH]3)c(F)c(OC)c12`
## Output 3.8

====

experimental-system: KAT7+JADE1+EAF6+ING5 4 protein complex (Homo sapiens (Human))
assay-summary: KAT7 JADE1 assay (SAMDI-MS acetylation of H3 1-21 peptide)
Type: biochemical
condition: Morrison equation fit; replicate number in parentheses; read-out: KAT7 JADE1 Ki (nM) (replicate number)
measure-name: Ki (nM)
API: value field is a number in nM; no unit string.

COc1cc2c(NS(=O)(=O)c3c(OC)cc(C4CCCN4C)cc3OC)noc2cc1Nc1cc(C2CC2)n[nH]1 (racemic) [Example 154]: 15.3

## Input // Input: COc1cc2c(NS(=O)(=O)c3c(OC)cc(-c4cnc(N(C)C)cn4)cc3OC)noc2cc1Nc1cc(C2CC2)n[nH]1 [Example 217] . Output its Ki only.
## Output 1.9

## Input Let me know recorded Ki for CCn1cnc(Nc2cc3onc(NS(=O)(=O)c4c(OC)cccc4OC)c3cc2OC)c1 [Example 75] , thanks.
## Output 501

## Input Supply reported Ki belonging to this compound: COc1cc2c(NS(=O)(=O)c3c(OC)cccc3OCC(F)F)noc2cc1Nc1cc[nH]n1 [Example 31]
## Output 325

====

experimental-system: KAT6A Full length enzyme (Homo sapiens (Human))
assay-summary: KAT6A assay (SAMDI-MS acetylation of H3 1-21 peptide)
Format: biochemical
condition: Morrison equation fit; replicate number in parentheses; read-out: KAT6A Ki (nM) (replicate number)
measure-name: Ki (nM)
Number in nM, nothing else.

Some compounds with recorded Ki:
CCOc1cc(C)ccc1S(=O)(=O)Nc1noc2cc(Nc3cc[nH]n3)c(OC)cc12 [Example 29]: 1
CCc1cc(Nc2cc3onc(NS(=O)(=O)c4c(OC)cc(-c5cn(C)cn5)cc4OC)c3cc2OC)[nH]n1 [Example 238]: 1.2
COc1cc2c(NS(=O)(=O)c3c(OC)cc(C4CN(C)CC(F)(F)C4)cc3OC)noc2cc1Nc1cc(C2CC2)[nH]n1 (single isomer, unassigned) [Example 228]: 0.8
COc1cc2c(NS(=O)(=O)c3c(OC)cc(C4COCC(C)(C)O4)cc3OC)noc2cc1Nc1cc(C2CC2)n[nH]1 (single isomer, unassigned) [Example 184]: 1.8
COc1cc2c(NS(=O)(=O)c3cc(C)ccc3OC)noc2cc1Nc1cc[nH]n1 [Example 24]: 0.9

## Input Report Ki under test system KAT6A Full length enzyme (Homo sapiens (Human)) for CCc1cc(Nc2cc3onc(NS(=O)(=O)c4c(OC)cc(-c5nccc(C)n5)cc4OC)c3cc2OC)[nH]n1 [Example 233] .
## Output 1.7

## Input Under KAT6A Full length enzyme (Homo sapiens (Human)), report Ki for COc1cccc(OC)c1S(=O)(=O)Nc1noc2cc(NC3COC3)cc(OC)c12 [Example 11]
## Output 31.1

====

experimental-system: KAT8 Full length enzyme (Homo sapiens (Human))
Sequence (Q9H7Z6 whole entry): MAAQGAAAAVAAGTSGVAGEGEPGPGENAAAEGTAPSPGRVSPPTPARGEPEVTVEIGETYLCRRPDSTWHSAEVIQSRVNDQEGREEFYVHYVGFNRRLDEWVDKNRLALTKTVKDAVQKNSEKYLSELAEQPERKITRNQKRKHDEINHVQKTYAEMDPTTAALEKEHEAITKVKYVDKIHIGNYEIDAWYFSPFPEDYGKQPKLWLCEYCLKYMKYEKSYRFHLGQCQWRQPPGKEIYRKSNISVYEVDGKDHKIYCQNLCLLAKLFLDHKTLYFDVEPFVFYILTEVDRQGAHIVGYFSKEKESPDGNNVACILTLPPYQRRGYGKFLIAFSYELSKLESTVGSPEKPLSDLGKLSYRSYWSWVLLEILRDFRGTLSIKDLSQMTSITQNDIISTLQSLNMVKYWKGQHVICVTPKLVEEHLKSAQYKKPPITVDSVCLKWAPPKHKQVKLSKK
assay-summary: KAT8 assay (SAMDI-MS acetylation of H3 1-21 peptide)
Assay type: biochemical
condition: Morrison equation fit; replicate number in parentheses; read-out: KAT8 Ki (nM) (replicate number)
# Ki annotations
Your answer should be a plain number; it is taken to be in nM.

Recorded results for 3 compounds are shown here.
CCc1cc(Nc2cc3onc(NS(=O)(=O)c4ccc(C(F)(F)F)cc4Cl)c3cc2OC)n[nH]1 [Example 124]: 8220
COc1cc2c(NS(=O)(=O)c3c(OC)cccc3OC)noc2cc1Nc1cc(C2CC2)n(C)n1 [Example 103]: 6010
CCc1cc(Nc2cc3onc(NS(=O)(=O)c4c(OC)cc(-c5ccn(C)n5)cc4OC)c3cc2OC)[nH]n1 [Example 230]: 1960

## Input Give Ki for COc1cccc(OC)c1S(=O)(=O)Nc1noc2cc(Nc3ncc[nH]3)cc(OC)c12 [Example 15]
## Output 1320

## Input Give the measured Ki for COc1cc2c(NS(=O)(=O)c3cc4c(cc3OC)CCCC4)noc2cc1Nc1cc(C)n[nH]1 [Example 82]
## Output 467

## Input Please list Ki recorded for the compound COc1cc2c(NS(=O)(=O)c3c(OC)cc(-c4nccc(CN(C)C)n4)cc3OC)noc2cc1Nc1cc(C2CC2)n[nH]1 [Example 222]
## Output 958

====

Attribute: Ki
experimental-system: KAT7+JADE1+EAF6+ING5 4 protein complex (Homo sapiens (Human), UniProt O95251)
assay-summary: KAT7 JADE1 assay (SAMDI-MS acetylation of H3 1-21 peptide)
Assay type: biochemical
condition: Morrison equation fit; replicate number in parentheses; read-out: KAT7 JADE1 Ki (nM) (replicate number)
Lab book: enter the figure in nM, no units written.

## Input Give a short answer stating reported Ki for COc1cc2c(NS(=O)(=O)c3c(OC)cc(-c4ccn(C)n4)cc3OC)noc2cc1Nc1cc(C2CC2C)n[nH]1 (single isomer, unassigned) [Example 242] .
## Output 9.2

## Input Entry COc1cc2c(NS(=O)(=O)c3c(OC)cc(C4CCCCN4C)cc3OC)noc2cc1Nc1cc(C2CC2)n[nH]1 (single isomer, unassigned) [Example 172] needs its Ki filled in; supply it.
## Output 34.1

## Input Retrieve Ki measured for `COc1cccc(OC)c1S(=O)(=O)Nc1noc2cc(Nc3ncco3)cc(OC)c12` and print it.
## Output 1230

## Input Please report the measured Ki for `COc1cc2c(NS(=O)(=O)c3c(OC)cccc3OC)noc2cc1Nc1cc(CC(C)C)n[nH]1`
## Output 22

## Input Entry `COc1cc2c(NS(=O)(=O)c3c(OC)cccc3OC)noc2cc1Nc1cc(C(C)(F)F)n[nH]1` needs its Ki filled in; supply it.
## Output 130

## Input Fill in reported Ki for this entry: `CCc1cc(Nc2cc3onc(NS(=O)(=O)c4ccc(-c5ccccc5)cc4)c3cc2OC)n[nH]1`
## Output 85.2

## Input Read the entry `COc1cc2c(NS(=O)(=O)c3c(OC)cccc3OC)noc2cc1Nc1cc(OC)n(C)n1` and write its reported Ki.
## Output 139

## Input # return recorded Ki for input `CCOc1cc(C)ccc1S(=O)(=O)Nc1noc2cc(Nc3cc(C(C)C)[nH]n3)c(OC)cc12`
## Output 109

## Input Quote Ki reported for `COc1cc2c(NS(=O)(=O)c3c(OC)cc(-c4ccc(C)cn4)cc3OC)noc2cc1Nc1cc(C2CC2)n[nH]1` please.
## Output 4.2
